Molecular target: Amine oxidase [flavin-containing] A (Rattus norvegicus, UniProt P21396)
Sequence (P21396 whole entry): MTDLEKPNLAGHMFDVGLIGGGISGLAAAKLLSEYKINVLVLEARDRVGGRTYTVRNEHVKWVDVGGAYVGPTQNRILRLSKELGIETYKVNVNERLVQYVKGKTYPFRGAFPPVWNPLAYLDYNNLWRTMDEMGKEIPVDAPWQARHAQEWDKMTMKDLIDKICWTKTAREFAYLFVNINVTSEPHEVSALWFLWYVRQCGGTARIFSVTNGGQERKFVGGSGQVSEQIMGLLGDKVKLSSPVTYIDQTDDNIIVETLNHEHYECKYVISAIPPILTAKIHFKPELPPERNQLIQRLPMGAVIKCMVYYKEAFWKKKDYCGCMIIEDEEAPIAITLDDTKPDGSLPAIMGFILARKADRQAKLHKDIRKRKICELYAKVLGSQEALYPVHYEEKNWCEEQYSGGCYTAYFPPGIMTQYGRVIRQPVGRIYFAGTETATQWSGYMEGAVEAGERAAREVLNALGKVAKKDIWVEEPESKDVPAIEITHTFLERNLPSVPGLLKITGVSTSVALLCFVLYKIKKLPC
measurement-label: Ki (µM)
One number for each entry, in µM.

Short answer for Cc1cccc([C@@H](C)c2cnc[nH]2)c1C : Ki was 1

---

Target: Nischarin (Rattus norvegicus, UniProt Q4G017)
Sequence (Q4G017 whole entry): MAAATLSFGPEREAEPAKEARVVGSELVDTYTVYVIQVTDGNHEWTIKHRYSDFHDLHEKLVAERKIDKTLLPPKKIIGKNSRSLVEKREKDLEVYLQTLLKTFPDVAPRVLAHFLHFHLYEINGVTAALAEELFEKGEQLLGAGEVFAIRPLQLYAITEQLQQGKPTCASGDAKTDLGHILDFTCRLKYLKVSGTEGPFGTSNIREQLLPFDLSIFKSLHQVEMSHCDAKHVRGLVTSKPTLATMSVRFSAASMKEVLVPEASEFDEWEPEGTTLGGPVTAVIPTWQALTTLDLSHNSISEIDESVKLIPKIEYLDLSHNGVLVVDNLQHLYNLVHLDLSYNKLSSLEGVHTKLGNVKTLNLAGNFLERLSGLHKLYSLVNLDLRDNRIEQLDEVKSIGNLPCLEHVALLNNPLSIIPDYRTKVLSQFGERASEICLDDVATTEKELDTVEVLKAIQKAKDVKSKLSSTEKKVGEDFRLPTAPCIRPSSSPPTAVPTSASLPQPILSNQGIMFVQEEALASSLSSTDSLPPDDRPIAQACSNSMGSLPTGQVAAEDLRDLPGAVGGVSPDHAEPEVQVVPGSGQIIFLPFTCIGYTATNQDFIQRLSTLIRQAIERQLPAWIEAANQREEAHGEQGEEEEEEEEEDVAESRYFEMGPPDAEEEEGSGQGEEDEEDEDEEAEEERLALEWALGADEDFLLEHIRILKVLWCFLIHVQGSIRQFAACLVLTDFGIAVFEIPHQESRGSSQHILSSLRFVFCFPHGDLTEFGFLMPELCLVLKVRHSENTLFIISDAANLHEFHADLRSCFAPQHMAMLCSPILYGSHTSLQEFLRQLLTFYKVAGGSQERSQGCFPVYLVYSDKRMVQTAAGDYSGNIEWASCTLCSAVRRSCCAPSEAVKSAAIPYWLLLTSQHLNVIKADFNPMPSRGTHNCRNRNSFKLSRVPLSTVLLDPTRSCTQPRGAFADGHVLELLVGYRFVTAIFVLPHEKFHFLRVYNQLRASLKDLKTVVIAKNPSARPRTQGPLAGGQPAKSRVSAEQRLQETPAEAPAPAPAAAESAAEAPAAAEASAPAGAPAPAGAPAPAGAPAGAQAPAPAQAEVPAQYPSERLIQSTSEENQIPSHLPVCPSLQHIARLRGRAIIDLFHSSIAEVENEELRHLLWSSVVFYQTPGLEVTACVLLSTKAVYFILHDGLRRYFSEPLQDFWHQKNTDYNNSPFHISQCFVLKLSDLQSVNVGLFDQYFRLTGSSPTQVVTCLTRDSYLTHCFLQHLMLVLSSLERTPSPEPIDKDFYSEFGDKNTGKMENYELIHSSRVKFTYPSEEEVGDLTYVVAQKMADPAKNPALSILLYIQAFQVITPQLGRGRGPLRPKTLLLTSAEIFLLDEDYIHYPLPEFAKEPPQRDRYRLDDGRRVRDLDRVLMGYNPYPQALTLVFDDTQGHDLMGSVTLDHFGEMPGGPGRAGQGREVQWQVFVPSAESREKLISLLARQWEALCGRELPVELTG
measurement-label: Ki (µM)
One number for each entry, in µM.

Short answer for Cc1cccc([C@@H](C)c2cnc[nH]2)c1C : Ki was 0.0501

---

Target: Alpha-1D adrenergic receptor (Homo sapiens, UniProt P25100)
Sequence (P25100 whole entry): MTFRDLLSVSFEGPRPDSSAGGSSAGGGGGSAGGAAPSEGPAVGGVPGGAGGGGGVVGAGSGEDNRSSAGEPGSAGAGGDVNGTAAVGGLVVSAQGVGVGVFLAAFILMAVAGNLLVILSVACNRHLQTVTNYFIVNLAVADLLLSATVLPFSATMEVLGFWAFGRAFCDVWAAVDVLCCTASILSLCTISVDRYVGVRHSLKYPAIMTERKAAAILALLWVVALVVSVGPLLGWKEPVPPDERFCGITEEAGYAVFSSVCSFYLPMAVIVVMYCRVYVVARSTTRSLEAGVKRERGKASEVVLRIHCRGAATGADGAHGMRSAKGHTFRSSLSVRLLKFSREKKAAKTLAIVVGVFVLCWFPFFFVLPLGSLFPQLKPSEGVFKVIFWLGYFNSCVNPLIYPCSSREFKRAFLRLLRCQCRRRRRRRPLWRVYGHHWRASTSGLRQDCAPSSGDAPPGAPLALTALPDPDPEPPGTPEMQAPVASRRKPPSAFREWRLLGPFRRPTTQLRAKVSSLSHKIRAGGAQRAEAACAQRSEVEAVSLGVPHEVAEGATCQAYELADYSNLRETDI
measurement-label: pKi
Give bare numbers, as −log10 of the molar value.

Short answer for Cc1cccc([C@@H](C)c2cnc[nH]2)c1C : pKi was 7.10
